Origin of measurements: patent US20220177587A1

TARGET ENTITY: huPD-L1 (Homo sapiens, UniProt Q9NZQ7)
Sequence (Q9NZQ7 19-290): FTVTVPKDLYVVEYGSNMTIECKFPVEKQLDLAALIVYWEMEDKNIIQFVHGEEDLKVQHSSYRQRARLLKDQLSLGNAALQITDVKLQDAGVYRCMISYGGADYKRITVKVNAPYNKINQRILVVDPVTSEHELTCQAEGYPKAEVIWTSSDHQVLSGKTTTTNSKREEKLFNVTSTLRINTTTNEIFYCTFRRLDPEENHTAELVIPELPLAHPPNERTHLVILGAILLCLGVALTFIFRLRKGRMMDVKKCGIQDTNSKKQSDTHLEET
EXPERIMENT NOTES: Flow binding to CHO cells stably expressing PD-L1
Set-up: huCTLA4 and huPD-L1, full-length mammalian surface expression constructs were generated; expressed in transfected cells; host or cells: CHO cells, lentiviral transduction, sorted to >98% purity
STATED CONDITIONS: Table E4; binding to PD-L1 compared to binding to CD28
Quick reference: Ratio of PDL1:CD28 of the listed items.
MEASURED PROPERTY: Ratio of PDL1:CD28

* E35D/D46E/M47V/N63D/L85Q (protein, UniProt P33681 35-288, looked up, variant E35D D46E M47V N63D L85Q) T-lymphocyte activation …: VIHVTKEVKEVATLSCGHNVSVEELAQTRIYWQKDKKMVLTMMSGEVNIWPEYKNRTIFDITDNLSIVILALRPSDEGTYECVVQKYEKDAFKREHLAEVTLSVKADFPTPSISDFEIPTSNIRRIICSTSGGFPEPHLSWLENGEELNAINTTVSQDPETELYAVSSKLDFNMTTNHSFMCLIKYGHLRVNQTFNWNTTKQEHFPDNLLPSWAITLISVNGIFVICCLTYCFAPRCRERRRNERLRRESVRPV | 52
* E35D/L85Q/K93I/E95V/L97Q (protein) VIHVTKEVKEVATLSCGHNVSVEELAQTRIYWQKDKKMVLTMMSGDMNIWPEYKNRTIFDITNNLSIVILALRPSDEGTYECVVQKYEKDAFTRVHQAEVTLSVKAD | 50
* E35D/M47V/N48KN68M/K89N (protein) VIHVTKEVKEVATLSCGHNVSVEELAQTRIYWQKDKKMVLTMMSGDVKIWPEYKNRTIFDITNNLSIMILALRPSDEGTYECVVLKYENDAFKREHLAEVTLSVKAD | 8
* Q33L/E35D/M47I/N48D/A71G (protein, UniProt P33681 35-288, looked up, variant Q33L E35D M47I N48D A71G) T-lymphocyte activation …: VIHVTKEVKEVATLSCGHNVSVEELAQTRIYWLKDKKMVLTMMSGDIDIWPEYKNRTIFDITNNLSIVILGLRPSDEGTYECVVLKYEKDAFKREHLAEVTLSVKADFPTPSISDFEIPTSNIRRIICSTSGGFPEPHLSWLENGEELNAINTTVSQDPETELYAVSSKLDFNMTTNHSFMCLIKYGHLRVNQTFNWNTTKQEHFPDNLLPSWAITLISVNGIFVICCLTYCFAPRCRERRRNERLRRESVRPV | 48
* E35D/T41S/M43V/M47I/L70M/A71G (protein, UniProt P33681 35-288, looked up, variant E35D T41S M43V M47I L70M A71G, Fc fusion) T-lymphocyte activation …: VIHVTKEVKEVATLSCGHNVSVEELAQTRIYWQKDKKMVLSMVSGDINIWPEYKNRTIFDITNNLSIVIMGLRPSDEGTYECVVLKYEKDAFKREHLAEVTLSVKADFPTPSISDFEIPTSNIRRIICSTSGGFPEPHLSWLENGEELNAINTTVSQDPETELYAVSSKLDFNMTTNHSFMCLIKYGHLRVNQTFNWNTTKQEHFPDNLLPSWAITLISVNGIFVICCLTYCFAPRCRERRRNERLRRESVRPV | 5
